# Tested on: Phytophthora infestans (the causal agent of tomato late blight)
# Test: whole plant or invertebrate
# Format: in vivo
# Assay Setup: Phytophthora infestans, 144 h, read-out: Percent Disease Control, Test B
The entries below are paired with their reported pest or weed control at 10 µg/mL.
Field format: number, assumed %, no unit text.

Check out these entries, answers already filled in.
Compound	Experimental Value
O=C(Cn1nc(C(F)(F)F)cc1C(F)(F)F)N1CCC(c2nc(C3=NO[C@]4(CCCc5ccccc54)C3)cs2)CC1 (racemic) [Compound 229]	100
O=C(Cn1nc(C(F)(F)F)cc1Cl)N1CCC(c2nc(C3=NO[C@]4(CCCc5ccccc54)C3)cs2)CC1 (racemic) [Compound 230]	100

Pending compound:
Incoming: Tell me its pest or weed control at 10 µg/mL given C[C@]1(c2ccccc2)CC(c2csc(C3CCN(C(=O)Cn4nc(C(F)(F)F)cc4Cl)CC3)n2)=NO1 (racemic) [Compound 261] as the entry.
Outgoing: 100
